# Tested on: MDA-MB-231 breast adenocarcinoma cell line
# assay protocol: DIMSCAN cytotoxicity, fenretinide + L-threo-sphinganines 3:1 (Example B14)
# Format: cell-based, human
# condition set: MDA-MB-231, 20% O2; 4-HPR 1.5 μM + L-threo-sphinganine 0.5 μM; 96 h
Listed below: CI (Combination Index) values for each entry.
Answer field: number only, no words.

Below, each entry is followed by its recorded CI (Combination Index) result.
Query: Write down CI (Combination Index) measured for item CCCCCCCCC[C@H](O)[C@@H](N)CO
Response: 1.5

Query: Write down CI (Combination Index) measured for item CCCCCCCCCCCCCCCC[C@H](O)[C@@H](N)CO
Response: 1.2

Query: Write down CI (Combination Index) measured for item CCCCCCCCCCCCCCC[C@H](O)[C@@H](N)CO [C18, (2S,3S)-2-amino-1,3-octadecanediol, reference compound]
Response: 1.8

More entries:
Query: Write down CI (Combination Index) measured for item CCCCCCCCCCCCCC[C@H](O)[C@@H](N)CO
Response: 1.3

Query: Write down CI (Combination Index) measured for item CCCCCCCCCCCCCCCCC[C@H](O)[C@@H](N)CO
Response: 2.0

----------
# System: A-172 Glioblastoma multiforme cell line
# assay protocol: DIMSCAN cytotoxicity, fenretinide + L-threo-sphinganines 3:1 (Example B4)
# Assay type: cell-based, human
# condition set: 4-HPR 3 μM + L-threo-sphinganine 1 μM, 96 h
parameter: Fa (fraction affected)
Answer field: number only, no words.

Below, each entry is followed by its recorded Fa (fraction affected) result.
Query: Report value: Fa (fraction affected), system: A-172 Glioblastoma multiforme cell line, compound: CCCCCCCCCCCCCCCCC[C@H](O)[C@@H](N)CO
Response: 0.594

Query: Report value: Fa (fraction affected), system: A-172 Glioblastoma multiforme cell line, compound: CCCCCCCCCCCCCC[C@H](O)[C@@H](N)CO
Response: 0.529

Query: Report value: Fa (fraction affected), system: A-172 Glioblastoma multiforme cell line, compound: CCCCCCCCCCC[C@H](O)[C@@H](N)CO
Response: 0.065

Query: Report value: Fa (fraction affected), system: A-172 Glioblastoma multiforme cell line, compound: CCCCCCCCCCCC[C@H](O)[C@@H](N)CO
Response: 0.378

Switching to the query record.
Query: Report value: Fa (fraction affected), system: A-172 Glioblastoma multiforme cell line, compound: CCCCCCCCC[C@H](O)[C@@H](N)CO
Response: 0.065

----------
Listed below: Fa (fraction affected) values for each entry.
# Test system: A-172 Glioblastoma multiforme cell line
# assay protocol: DIMSCAN cytotoxicity, fenretinide + L-threo-sphinganines 3:1 (Example B4)
# Format: cell-based, human
# condition set: 4-HPR 3 μM + L-threo-sphinganine 1 μM, 96 h
# Procedure: Cytotoxicity Assay—Once again, cytotoxicity is determined using the DIMSCAN assay system (R. Proffitt et al., Cytometry 24, 204-213 (1996); T. Frgala et al., Mol Cancer Ther. 6:886-97, 2007). The system employs digital imaging microscopy to quantify viable cells, which selectively accumulate fluorescein diacetate to become brightly fluorescent. […] Measured fluorescence is directly proportionate to the number of viable cells. […]
Answer field: number only, no words.

Query: Write down Fa (fraction affected) measured for item CCCCCCCCCCCCCCCC[C@H](O)[C@@H](N)CO
Response: 0.578

Query: Write down Fa (fraction affected) measured for item CCCCCCCCCCCCCCC[C@H](O)[C@@H](N)CO [C18, (2S,3S)-2-amino-1,3-octadecanediol, reference compound]
Response: 0.803

Switching to the query record.
Query: Write down Fa (fraction affected) measured for item CCCCCCCCCCCCCCCCCC[C@H](O)[C@@H](N)CO
Response: 0.537

----------
# Tested on: OVCAR-8 ovarian adenocarcinoma cell line
# assay protocol: DIMSCAN cytotoxicity, fenretinide + L-threo-sphinganines 3:1 (Example B15)
# Format: cell-based, human
# condition set: 4-HPR 9 μM + L-threo-sphinganine 3 μM, 96 h
Listed below: Fa (fraction affected) values for each entry.
Answer field: number only, no words.

Below, each entry is followed by its recorded Fa (fraction affected) result.
Query: Report value: Fa (fraction affected), system: OVCAR-8 ovarian adenocarcinoma cell line, molecule: CCCCCCCCCCCCCCCC[C@H](O)[C@@H](N)CO
Response: 0.978

Query: Report value: Fa (fraction affected), system: OVCAR-8 ovarian adenocarcinoma cell line, molecule: CCCCCCCCCCCC[C@H](O)[C@@H](N)CO
Response: 0.977

Query: Report value: Fa (fraction affected), system: OVCAR-8 ovarian adenocarcinoma cell line, molecule: CCCCCCCCC[C@H](O)[C@@H](N)CO
Response: 0.704

Query: Report value: Fa (fraction affected), system: OVCAR-8 ovarian adenocarcinoma cell line, molecule: CCCCCCCCCCCCCCCCCC[C@H](O)[C@@H](N)CO
Response: 0.975

Query: Report value: Fa (fraction affected), system: OVCAR-8 ovarian adenocarcinoma cell line, molecule: CCCCCCCCCCCCCC[C@H](O)[C@@H](N)CO
Response: 0.903

Query: Report value: Fa (fraction affected), system: OVCAR-8 ovarian adenocarcinoma cell line, molecule: CCCCCCCCCCC[C@H](O)[C@@H](N)CO
Response: 0.988

More entries:
Query: Report value: Fa (fraction affected), system: OVCAR-8 ovarian adenocarcinoma cell line, molecule: CCCCCCCCCCCCCCCCC[C@H](O)[C@@H](N)CO
Response: 0.956

Query: Report value: Fa (fraction affected), system: OVCAR-8 ovarian adenocarcinoma cell line, molecule: CCCCCCCCCCCCCCC[C@H](O)[C@@H](N)CO [C18, (2S,3S)-2-amino-1,3-octadecanediol, reference compound]
Response: 0.761

----------
# Tested on: CHLA-266 primitive neuroectodermal tumor (PNET) cell line
# assay protocol: DIMSCAN cytotoxicity, fenretinide + L-threo-sphinganines 3:1 (Example B9)
# Format: cell-based, human
# condition set: 4-HPR 1.5 μM + L-threo-sphinganine 0.5 μM, 96 h
parameter: CI (Combination Index)
Answer field: number only, no words.

Query: Report value: CI (Combination Index), system: CHLA-266 primitive neuroectodermal tumor (PNET) cell line, compound: CCCCCCCCCCCCCCC[C@H](O)[C@@H](N)CO [C18, (2S,3S)-2-amino-1,3-octadecanediol, reference compound]
Response: 0.5

Query: Report value: CI (Combination Index), system: CHLA-266 primitive neuroectodermal tumor (PNET) cell line, compound: CCCCCCCCCCCC[C@H](O)[C@@H](N)CO
Response: 0.5

Query: Report value: CI (Combination Index), system: CHLA-266 primitive neuroectodermal tumor (PNET) cell line, compound: CCCCCCCCCCC[C@H](O)[C@@H](N)CO
Response: 0.6

Query: Report value: CI (Combination Index), system: CHLA-266 primitive neuroectodermal tumor (PNET) cell line, compound: CCCCCCCCC[C@H](O)[C@@H](N)CO
Response: 0.6

Switching to the query record.
Query: Report value: CI (Combination Index), system: CHLA-266 primitive neuroectodermal tumor (PNET) cell line, compound: CCCCCCCCCCCCCC[C@H](O)[C@@H](N)CO
Response: 0.5

----------
# Tested on: OE-19 esophageal adenocarcinoma cell line
# assay protocol: DIMSCAN cytotoxicity, fenretinide + L-threo-sphinganines 3:1 (Example B19)
# Type: cell-based, human
# condition set: 4-HPR 3 μM + L-threo-sphinganine 1 μM
# Experimental: Cytotoxicity Assay—Once again, cytotoxicity is determined using the DIMSCAN assay system (R. Proffitt et al., Cytometry 24, 204-213 (1996); T. Frgala et al., Mol Cancer Ther. 6:886-97, 2007). The system employs digital imaging microscopy to quantify viable cells, which selectively accumulate fluorescein diacetate to become brightly fluorescent. […] Measured fluorescence is directly proportionate to the number of viable cells. […]
parameter: CI
Answer field: number only, no words.

Query: Report value: CI, system: OE-19 esophageal adenocarcinoma cell line, molecule: CCCCCCCCCCCCCC[C@H](O)[C@@H](N)CO [C17, (2S,3S)-2-amino-1,3-heptadecanediol]
Response: 0.3

More entries:
Query: Report value: CI, system: OE-19 esophageal adenocarcinoma cell line, molecule: CCCCCCCCCCCCCCCCC[C@H](O)[C@@H](N)CO [C20, (2S,3S)-2-amino-1,3-icosanediol]
Response: 6.6

Query: Report value: CI, system: OE-19 esophageal adenocarcinoma cell line, molecule: CCCCCCCCCCCCCCCC[C@H](O)[C@@H](N)CO [C19, (2S,3S)-2-amino-1,3-nonadecanediol]
Response: 1.6

Query: Report value: CI, system: OE-19 esophageal adenocarcinoma cell line, molecule: CCCCCCCCCCCCCCC[C@H](O)[C@@H](N)CO [C18, (2S,3S)-2-amino-1,3-octadecanediol, reference compound]
Response: 0.4

Query: Report value: CI, system: OE-19 esophageal adenocarcinoma cell line, molecule: CCCCCCCCC[C@H](O)[C@@H](N)CO [C12]
Response: 2.9

Reference for the values: patent US20110152267A1
